Record type: pIC50 measurement. Applies to: human CRTH2 (Homo sapiens)
pIC50: −log10 of the molar value.

# input For the compound `CCNC(=O)c1cc(NS(=O)(=O)c2ccc(Cl)cc2Cl)c2oc3c(Cl)cc(CC(=O)O)cc3c2c1` , what pIC50 is on record?
# output > 6.00

# input Repeat with `O=C(O)Cc1cccc(Oc2ccc(C(=O)c3ccccc3)cc2NS(=O)(=O)c2ccccc2)c1`
# output 4.82 to 6.00

# input Please give the result for `CCNC(=O)c1ccc(C(=O)c2cc(CC(=O)O)ccc2OC)c(NS(=O)(=O)c2ccc(C)cc2)c1` too.
# output > 6.00

# input `Cc1ccc(S(=O)(=O)Nc2ccccc2Cc2ccc(CC(=O)O)cc2)cc1` , same question.
# output > 6.00

* * *

Recorded below: IC50, system human CRTH2 (Homo sapiens).

# input Request the reported IC50 associated with `CCNC(=O)c1ccc(Oc2ccc(Cc3nnn[nH]3)cc2OC)c(NS(=O)(=O)c2ccc(Cl)cc2Cl)c1`
# output < 1000 nM

# input What about CCOC(=O)Cc1cccc(Oc2ccccc2[N+](=O)[O-])c1 [Example 31, Ethyl 3-(2-nitrophenoxy)phenylacetate] ?
# output > 15000 nM

# input Now the compound `CCNC(=O)c1ccc(Oc2ccc(CCC(=O)O)cc2)c(NS(=O)(=O)c2ccccc2)c1`
# output < 1000 nM

# input Next record, please: `O=C(O)Cc1cccc(Oc2ccc(Cl)cc2NS(=O)(=O)c2ccccc2)c1`
# output < 1000 nM

# input And then `O=C(O)Cc1cn(Cc2ccccc2NCc2ccccc2)c2ccccc12` , what is it?
# output 1000 to 15000 nM

# input Item: `O=C(O)Cc1ccc(Oc2ccc(C(F)(F)F)cc2NS(=O)(=O)c2cccc3ccccc23)cc1`
# output 1000 to 15000 nM
